Origin of values: PubChem BioAssay (NCI)

- Test system: HOP-92 NSCLC
- run description: NCI-60 one-dose screen, 48 h
- assay setup: 10 µM unless noted
About 83,000 compounds went through this panel and 20% of them were active in at least one assay; those are over-represented in the sample as a whole. Active and inactive are the calls of the source. Rule for the calls: active = growth percent below 10; inactive = the rest.
Outcome codes: True (active), False (inactive)

>  <molecule>
COc1cc(C)c(Cc2cnc(N)nc2N)cc1OC

>  <group label>
False

$$$$
>  <molecule>
COc1cc(C(=O)/C=C/c2ccc(OCCCCCC[P+](c3ccccc3)(c3ccccc3)c3ccccc3)cc2)cc(OC)c1OC

>  <group label>
True

$$$$
>  <molecule>
Cc1cc(=O)[nH]c(=O)n1Cc1cn(-c2c3ccccc3nc3ccccc23)nn1

>  <group label>
False

$$$$
>  <molecule>
O=C(/C=C/c1sc(Cl)nc1Cl)c1ccccc1

>  <group label>
False

$$$$
>  <molecule>
COC1=C(C)C(=O)c2c(c(CCCl)c3n2CCC3O)C1=O (configuration not stated)

>  <group label>
False

$$$$
>  <molecule>
S=C(c1cccs1)N1CCN(c2cccc(Cl)c2)CC1

>  <group label>
False

$$$$
>  <molecule>
O=C(/C=C/c1ccc([N+](=O)[O-])o1)NNC(=O)c1cc2ccccc2cc1O

>  <group label>
True

$$$$
>  <molecule>
Cc1ccc(C2CC(c3ccc(Nc4ccnc5cc(Cl)ccc45)cc3)=NN2C=O)cc1 (configuration not stated)

>  <group label>
False

$$$$
>  <molecule>
CC1CN(C2CCCCC2)C(=S)N(c2ccccc2)C1=O (configuration not stated)

>  <group label>
False

$$$$
>  <molecule>
OC(COc1ccccc1Cl)CN1CCN(c2cccc(Cl)c2)CC1 (configuration not stated)

>  <group label>
False

$$$$
>  <molecule>
CCOC(=O)Nc1ccc(C(=O)/C=C/c2ccccc2)cc1

>  <group label>
False

$$$$
>  <molecule>
O=C(Oc1cccc2ccccc12)Oc1cccc2ccccc12

>  <group label>
False

$$$$
>  <molecule>
OC(c1ccccc1)C(NC(Cc1ccccc1)c1ccccc1)c1ccccc1 (configuration not stated)

>  <group label>
False

$$$$
>  <molecule>
C=C1C(=O)O[C@H]2[C@H]1CC/C(COC(=O)C(C)c1ccc(CC(C)C)cc1)=C\CC[C@@]1(C)O[C@@H]21 (some centres not stated)

>  <group label>
True

$$$$
>  <molecule>
CCOC(=O)c1cn2ncnc(Oc3ccc(NC(=O)NCCN(CC)CC)c(Cl)c3)c2c1C

>  <group label>
False

$$$$
>  <molecule>
Cc1nc(/N=C(\N)NC(=O)Nc2ccccc2Cl)sc1C

>  <group label>
False

$$$$
>  <molecule>
Cc1nc2ccccc2c(/C=C/c2ccc(Cl)cc2)c1C(=O)/C=C/c1ccc(C(F)(F)F)cc1

>  <group label>
True

$$$$
>  <molecule>
CNc1ccc(Nc2cccc(C)c2)c2c1C(=O)c1ccccc1C2=O

>  <group label>
False

$$$$
>  <molecule>
O=C(O)c1cn(C2CC2)c2cc(N3CCN(C(=O)Nc4nc(-c5ccccc5)cs4)CC3)c(F)cc2c1=O

>  <group label>
True

$$$$
>  <molecule>
CCCCn1c(-c2ccc(C(=O)O/N=C(\N)c3ccc(OC)cc3)cc2)nc(-c2ccccc2)c1-c1ccccc1

>  <group label>
True

$$$$
>  <molecule>
Cc1nc2nc(SCC(=O)O)[nH]c2c(=O)[nH]1

>  <group label>
False

$$$$
>  <molecule>
c1ccc(Nc2cc(-c3cccnc3)[nH]n2)cc1

>  <group label>
False

$$$$
